target: KRAS G13C (Homo sapiens, UniProt P01116+P62937, G13C); experiment: Disruption of BRAF RBD interaction with Ras (FRET / MOA assay, with Cyclophilin A); type: biochemical; conditions: KRAS G13C; read-out: KRAS G13C FRET data IC50
Sequence (P01116 1-169 isoform P01116-2 G13C): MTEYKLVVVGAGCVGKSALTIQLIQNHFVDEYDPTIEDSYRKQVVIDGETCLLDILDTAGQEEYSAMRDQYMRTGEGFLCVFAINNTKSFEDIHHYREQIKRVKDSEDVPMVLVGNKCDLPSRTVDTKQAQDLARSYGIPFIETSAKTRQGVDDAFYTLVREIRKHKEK
Sequence (P62937 whole entry): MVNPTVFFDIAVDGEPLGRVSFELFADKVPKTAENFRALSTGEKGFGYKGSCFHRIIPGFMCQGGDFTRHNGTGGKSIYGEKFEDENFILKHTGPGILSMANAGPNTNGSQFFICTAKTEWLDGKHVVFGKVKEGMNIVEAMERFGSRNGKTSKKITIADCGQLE
IC50 values, listed per item

See these solved cases before continuing.
Compound	IC50
CCn1c(-c2cccnc2[C@H](C)OC)c2c3cc(ccc31)N1CCO[C@@](C)(CC(NC(=O)[C@H](C(C)C)N(C)C(=O)C3(F)CCN(C(=O)C#CC(C)(C)N(C)C)CC3)C(=O)N3CCC[C@H](N3)C(=O)OCC(C)(C)C2)C1 (stereo partly drawn) [Example A550]	100 to 1000 nM
CCn1c(-c2cccnc2COC)c2c3cc(ccc31)-c1cc(O)cc(c1)C[C@H](NC(=O)[C@@H](C(C)C)N(C)C(=O)[C@H]1CCN(C(=O)C#CC(C)N3CCOCC3)C1)C(=O)N1CCC[C@H](N1)C(=O)OCC(C)(C)C2 (stereo partly drawn) [Example A200]	1000 to 10000 nM

We now examine a further compound.
Name the reported IC50 value associated with the compound C=CC(=O)N1CC[C@H](C(=O)N(C)[C@H](C(=O)N[C@H]2Cc3cc(O)cc(c3)-c3ccc4c(c3)c(c(-c3cc(F)cnc3COC)n4CC)CC(C)(C)COC(=O)[C@@H]3CCCN(N3)C2=O)C(C)C)C1 [Example A082] 100 to 1000 nM

Source of measurements: patent US20230233569A1
